Test system: colon HCT-116
PROTOCOL_DETAILS: COMPARE screening (NCI human cancer cell line screen), cytotoxicity GI50
Format: cell-based
ASSAY_ENDPOINT: GI50 (nM)
Give bare numbers, in nM.

MOLECULE | GI50 (nM)
Cl.O=C1c2ccccc2-c2c1c1ccc([N+](=O)[O-])cc1c(=O)n2CCCNCCO [Compound 5bl] | 27

Moving on to the next molecule.
If you can, please state the reported GI50 value of COc1ccc2c(c1)C(=O)c1c-2n(CCCNCCO)c(=O)c2ccccc12.Cl [Compound 5bn] .
44

---

System: melanoma UACC-62
PROTOCOL_DETAILS: COMPARE screening (NCI human cancer cell line screen), cytotoxicity GI50
Format: cell-based
DETAILS: melanoma UACC-62; concentration corresponding to 50% growth inhibition; read-out: cytotoxicity (GI50 in μM) melanoma UACC-62
ASSAY_ENDPOINT: log10 of GI50 (log10 of the value in µM)
Values are log10 of GI50 in µM.

Use the examples below as a reference point.
MOLECULE | TARGET_OF_ASSAY | log10 of GI50
O=C(O)C(F)(F)F.O=C(O)C(F)(F)F.O=C1c2ccccc2-c2c1c1ccc([N+](=O)[O-])cc1c(=O)n2CCCNCCCNCCCn1c2c(c3ccc([N+](=O)[O-])cc3c1=O)C(=O)c1ccccc1-2 [Compound 14n] | melanoma UACC-62 | 0.25
CC(C)(C)OC(=O)N(CCCCN(CCCn1c2c(c3ccccc3c1=O)C(=O)c1ccccc1-2)C(=O)OC(C)(C)C)CCCn1c2c(c3ccccc3c1=O)C(=O)c1ccccc1-2 [Compound 13d] | melanoma UACC-62 | 1.97
COc1cc2c3c(n(CCNCCCNCCn4c5c(c6cc(OC)c(OC)cc6c4=O)C(=O)c4ccccc4-5)c(=O)c2cc1OC)-c1ccccc1C3=O.O=C(O)C(F)(F)F.O=C(O)C(F)(F)F [Compound 14k] | melanoma UACC-62 | 0.09
O=C(O)C(F)(F)F.O=C(O)C(F)(F)F.O=C1c2ccccc2-c2c1c1ccccc1c(=O)n2CCNCCCNCCn1c2c(c3ccccc3c1=O)C(=O)c1ccccc1-2 [Compound 14d] | melanoma UACC-62 | -0.74
CN(CCCn1c2c(c3ccccc3c1=O)C(=O)c1ccccc1-2)CCCn1c2c(c3ccccc3c1=O)C(=O)c1ccccc1-2 [Compound 12d] | melanoma UACC-62 | 0.30

For every item in the list below, what is its measured log10 of GI50?
1. O=C(O)C(F)(F)F.O=C(O)C(F)(F)F.O=C1c2ccccc2-c2c1c1ccc([N+](=O)[O-])cc1c(=O)n2CCNCCCNCCn1c2c(c3ccc([N+](=O)[O-])cc3c1=O)C(=O)c1ccccc1-2 [Compound 14m]
2. COc1cc2c3c(n(CCCNCCCNCCCn4c5c(c6cc(OC)c(OC)cc6c4=O)C(=O)c4ccccc4-5)c(=O)c2cc1OC)-c1ccccc1C3=O.O=C(O)C(F)(F)F.O=C(O)C(F)(F)F [Compound 14l]

[-0.22, 0.63]
